target: UniProt P21453; assay: Agonistic activity against EDG by monitoring intracellular calcium ion concentration [Ca2+]i; conditions: human EDG-1 overexpressing CHO cells, increase ratio of [Ca2+]i
Sequence (P21453 whole entry): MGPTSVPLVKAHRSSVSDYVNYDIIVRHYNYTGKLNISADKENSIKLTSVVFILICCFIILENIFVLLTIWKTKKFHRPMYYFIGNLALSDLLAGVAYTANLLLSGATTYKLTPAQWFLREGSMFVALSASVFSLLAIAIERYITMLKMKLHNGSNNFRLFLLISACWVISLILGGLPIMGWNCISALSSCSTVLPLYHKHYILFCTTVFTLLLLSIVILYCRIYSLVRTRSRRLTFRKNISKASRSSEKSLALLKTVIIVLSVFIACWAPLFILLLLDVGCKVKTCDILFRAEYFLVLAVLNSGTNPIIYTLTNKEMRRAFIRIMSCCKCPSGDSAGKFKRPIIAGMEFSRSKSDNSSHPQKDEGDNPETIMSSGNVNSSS
pEC50: −log10 of the molar value.
measurement kind: pEC50

> print(dat)
                                    mol     system.name  measurement.kind  numeric.result
1  O=C(O)CCNCCCc1ccc(OCCCCCc2ccccc2)cc1  UniProt P21453             pEC50            6.59
